method: Pharmacokinetic study of protegrin conjugates, single IV dose in rats
Type: in vivo, Sprague-Dawley rats
condition: rat, in vivo, protegrin-1 in plasma (released or native), 1.6 mg/kg equivalent protein mass IV
readout-label: MRT last (min)
Report the figure in min without appending any unit label.

Which MRT last reading was recorded for the molecule CC(C)C[C@H](NC(=O)[C@H](CCCNC(=N)N)NC(=O)CNC(=O)CNC(=O)[C@@H](N)CCCNC(=N)N)C(=O)N[C@H]1CSSC[C@@H](C(=O)N[C@H](C(=O)NCC(=O)N[C@@H](CCCNC(=N)N)C(N)=O)C(C)C)NC(=O)[C@H](C(C)C)NC(=O)[C@@H]2CSSC[C@H](NC(=O)[C@H](Cc3ccc(O)cc3)NC1=O)C(=O)N[C@@H](CCCNC(=N)N)C(=O)N[C@@H](CCCNC(=N)N)C(=O)N[C@@H](CCCNC(=N)N)C(=O)N[C@@H](Cc1ccccc1)C(=O)N2 [Protegrin-1, reference compound] ?
31.2
